# Experimental Protocol: Cyto-toxicity assay (MTT) in MT2 cells without virus
# Assay type: cell-based
# Conditions: human
Recorded Metric: viability at 1000 nM (%)
One number for each entry, in %.

Would you mind telling me what viability at 1000 nM value was observed for `CC(C)(CC(=O)O[C@H]1CC[C@]2(C)[C@H]3CC[C@@H]4[C@H]5[C@H]([C@]6(C)CO6)CC[C@]5(C(=O)N[C@@H]5C[C@H](C(=O)N6CCCCC6)C5(C)C)CC[C@@]4(C)[C@]3(C)CC[C@H]2C1(C)C)C(=O)O` ?
88

Quick one: viability at 1000 nM of `CC1([C@@H]2CC[C@]3(C(=O)N4CCC(OCCN5CCOCC5)CC4)CC[C@]4(C)[C@H](CC[C@@H]5[C@@]6(C)CC[C@H](OC(=O)[C@H]7C[C@@H](C(=O)O)C7(C)C)C(C)(C)[C@@H]6CC[C@]54C)[C@@H]23)CC1` ?
100

I have this compound here, `CC(C)(CC(=O)O[C@H]1CC[C@]2(C)[C@H]3CC[C@@H]4[C@H]5[C@H](C6(C)CC6)CC[C@]5(C(=O)N[C@@H]5C[C@H](C(=O)N6CCCCC6)C5(C)C)CC[C@@]4(C)[C@]3(C)CC[C@H]2C1(C)C)C(=O)O` , and I need its recorded viability at 1000 nM.
86

***
Requested read-out: viability at 1000 nM. Entry: `[2H]C([2H])([2H])C(CC(=O)O[C@H]1CC[C@]2(C)[C@H]3CC[C@@H]4[C@H]5[C@H](C6(C)CC6)CC[C@]5(C(=O)N[C@@H]5C[C@H](C(=O)N6CCCCC6)C5(C)C)CC[C@@]4(C)[C@]3(C)CC[C@H]2C1(C)C)(C(=O)O)C([2H])([2H])[2H]`
87

----------
Consider the following compounds; for each one, report its Tmax.
# Experimental Protocol: Single dose oral pharmacokinetic study in mice
# Assay type: in vivo
# Conditions: mouse, plasma; Oral PK @ 30 mg/ kg dose in mice (Table 6)
# Method: The test item was administered through oral route to animals (rat/mice) at 30 mg/kg dose in a suitable vehicle at 10 ml/kg dose volume. Blood samples (˜50 uL at each time point) were collected from retro-orbital plexus using K3 EDTA as anticoagulant in eppendorf tubes at defined time intervals under light ether anesthesia. […] Sample analysis: Test samples were analyzed using LC-MS-MS after developing fit-for-purpose method for each of test compound.

Provide the reported Tmax of each entry below, same order.
1. CC1([C@@H]2CC[C@]3(C(=O)N4CCN(CCN5CCOCC5)CC4)CC[C@]4(C)[C@H](CC[C@@H]5[C@@]6(C)CC[C@H](OC(=O)[C@H]7C[C@@H](C(=O)O)C7(C)C)C(C)(C)[C@@H]6CC[C@]54C)[C@@H]23)CC1
2. CC1([C@@H]2CC[C@]3(C(=O)N[C@@H]4C[C@H](C(=O)N5CCCCC5)C4(C)C)CC[C@]4(C)[C@H](CC[C@@H]5[C@@]6(C)CC[C@H](OC(=O)[C@H]7C[C@@H](C(=O)O)C7(C)C)C(C)(C)[C@@H]6CC[C@]54C)[C@@H]23)CC1
3. CC(C)(CC(=O)O[C@H]1CC[C@]2(C)[C@H]3CC[C@@H]4[C@H]5[C@H](C6(C)CC6)CC[C@]5(C(=O)N5CCC(C#N)(c6ccccc6)CC5)CC[C@@]4(C)[C@]3(C)CC[C@H]2C1(C)C)C(=O)O

6.5 h
4.5 h
7 h

Would you mind telling me what Tmax value was observed for `[2H]C([2H])([2H])C(CC(=O)O[C@H]1CC[C@]2(C)[C@H]3CC[C@@H]4[C@H]5[C@H](C6(C)CC6)CC[C@]5(C(=O)N[C@@H]5C[C@H](C(=O)N6CCCCC6)C5(C)C)CC[C@@]4(C)[C@]3(C)CC[C@H]2C1(C)C)(C(=O)O)C([2H])([2H])[2H]` ?
1.8 h
